Test system: Bacillus subtilis
Experiment: cleaved RNA product abundance (RNA/gDNA barcode ratio) relative to median wild-type variant (ratio to wild type); higher = more accumulation of the downstream cleavage product
Conditions: experiment (reporter, strain, medium): exp 8a: truncated aprE reporter, strain BJT201 with 2% xylose (RNase J1 expressed); cleavage site: glnRA (positions -5 to +31 mutated)
metric: cleaved RNA product abundance

Indicate the recorded cleaved RNA product abundance value for this sequence: CGACATGTCCCGCTTCTTTCATTAATCCGTTAGCCACTGTTTTGCTATATACATTTACCTTTTAAGAGGAGGAAT
0.478

Indicate the recorded cleaved RNA product abundance value for this sequence: CGACATGTCCCGCTTCTTTCATTAATCCGTTAGCAACTGTTTTGCTATATACTTTTACCATTTAAGAGGAGGAAT
0.769

Indicate the recorded cleaved RNA product abundance value for this sequence: CGACATGTCCCGCTTCTTTCATTAATCCGTTAGCAACTGTTATGATATATACATTTACCTTTTAAGAGGAGGAAT
0.387

Others:
Indicate the recorded cleaved RNA product abundance value for this sequence: CGACATGTCCCGCTTCTTTCATTAATCCGTTAGGAACTGTTTTTCTATATACATTTACCTTTTAAGAGGAGGAAT
0.453

Indicate the recorded cleaved RNA product abundance value for this sequence: CGACATGTCCCGCTTCTTTCATTAATCCGTTAGCAACTGTTTTGCTTTATAAATTTACCTTTTAAGAGGAGGAAT
0.385

Indicate the recorded cleaved RNA product abundance value for this sequence: CGACATGTCCCGCTTCTTTCATTAATCCGTGAGCAACTGTTTTGCTATATACATTTACCTTTTAAGAGGAGGAAT
0.549

Indicate the recorded cleaved RNA product abundance value for this sequence: CGACATGTCCCGCTTCTTTCATTAATCCGTTAGCAACTTTTTTGTTATATACATTTACCTTTTAAGAGGAGGAAT
0.748

Indicate the recorded cleaved RNA product abundance value for this sequence: CGACATGTCCCGCTTCTTTCATTAATCCGTTATCAACTGTTTTGCTATATACATTTACATTTTAAGAGGAGGAAT
0.366

Indicate the recorded cleaved RNA product abundance value for this sequence: CGACATGTCCCGCTTCTTTCATTAATCTGTTAGCAACTGTTTTGCTATATACATATACCTTTTAAGAGGAGGAAT
0.829

Indicate the recorded cleaved RNA product abundance value for this sequence: CGACATGTCCCGCTTCTTTCATTAATCCGTTAGCAACTGTTTTGCTATATACATTTACCCTTTTAAGAGGAGGAA
0.756

Indicate the recorded cleaved RNA product abundance value for this sequence: CGACATGTCCCGCTTCTTTCATTAATCCGTTAGCAACTGTTTTGCCATATACATTTACCGTTTAAGAGGAGGAAT
0.539

Indicate the recorded cleaved RNA product abundance value for this sequence: CGACATGTCCCGCTTCTTTCATTAATCCGTTAGTAACTGTTTTCCTATATACATTTACCTTTTAAGAGGAGGAAT
0.44

###

Test system: Bacillus subtilis
Experiment: cleaved RNA product abundance (RNA/gDNA barcode ratio) relative to median wild-type variant (ratio to wild type); higher = more accumulation of the downstream cleavage product
Conditions: experiment (reporter, strain, medium): exp 4a: truncated aprE reporter, strain BJT201 with 2% xylose (RNase J1 expressed); cleavage site: cggR-gapA (positions -7 to +36 mutated)
metric: cleaved RNA product abundance
Hey, just send me the number, nothing else.

Indicate the recorded cleaved RNA product abundance value for this sequence: ACAGACGAAGGAGCCGCAAAGAAGTTATTAAGGGATGAATATTCCCTTAATATAAATATCTCTCACTTATTTAAA
0.526

Indicate the recorded cleaved RNA product abundance value for this sequence: ACAGACGAAGGAGCCGCAAAGAAGTTATTAAGGGAGGAATAATCCATCAATATAAATATCTCTCACTTATTTAAA
0.209

Indicate the recorded cleaved RNA product abundance value for this sequence: ACAGACGAAGGAGCCGCAAAGAACTTATTAAGGGGTGAATAATCCCTCAATATAAATATCTCTCACTTATTTAAA
0.411

Indicate the recorded cleaved RNA product abundance value for this sequence: ACAGACGAAGGAGCCGCAAAGAAGTTATTAAGGGAAGACTAATCCCTCAATATAAATATCTCTCACTTATTTAAA
0.452

Indicate the recorded cleaved RNA product abundance value for this sequence: ACAGACGAAGGAGCCGCAAAGAAGTTATTAAGGGATGACTAATCCCTCAATATAATTATCTCTCACTTATTTAAA
0.282

Others:
Indicate the recorded cleaved RNA product abundance value for this sequence: ACAGACGAAGGAGCCGCAAAGAAGTTATTAAGGGATGAATCATACCTCAATATAAATATCTCTCACTTATTTAAA
0.215

Indicate the recorded cleaved RNA product abundance value for this sequence: ACAGACGAAGGAGCCGCAAAGAAGTTATTAAGTGATGAATAATCCCTCATTATAAATATCTCTCACTTATTTAAA
0.151

Indicate the recorded cleaved RNA product abundance value for this sequence: ACAGACGAAGGAGCCGCTAAGAATTTATTAAGGGATGAATAATCCCTCAATATAAATATCTCTCACTTATTTAAA
0.468

Indicate the recorded cleaved RNA product abundance value for this sequence: ACAGACGAAGGAGCCGCAAAGAAGTTATTAAGGGAAGAACAATCCCTCAATATAAATATCTCTCACTTATTTAAA
0.73

Indicate the recorded cleaved RNA product abundance value for this sequence: ACAGACGAAGGAGCCGCAAAGAAGTTATTAAGGAATGAATAATCCCTCATTATAAATATCTCTCACTTATTTAAA
0.0579

Indicate the recorded cleaved RNA product abundance value for this sequence: ACAGACGAAGGAGCCGCAAGGAAGTTATTAAGGTATGAATAATCCCTCAATATAAATATCTCTCACTTATTTAAA
0.101

Indicate the recorded cleaved RNA product abundance value for this sequence: ACAGACGAAGGAGCCGCAAAGAAGCTATTAAGGAATGAATAATCCCTCAATATAAATATCTCTCACTTATTTAAA
0.101

Indicate the recorded cleaved RNA product abundance value for this sequence: ACAGACGAAGGAGCCGCAAAGAAGTTATTAAGGGATGAATAATCCCTCAATAAAAATATCTCTCACTTATTTAAA
0.147

Indicate the recorded cleaved RNA product abundance value for this sequence: ACAGACGAAGGAGCCGCAAAGAAGTTATTAAGGGATTTATAATCCCTCAATATAAATATCTCTCACTTATTTAAA
0.931

Indicate the recorded cleaved RNA product abundance value for this sequence: ACAGACGAAGGAGCCGCAAAGAAGTTATTAAGGGATGAATTATACCTCAATATAAATATCTCTCACTTATTTAAA
0.162
